What pKi was measured for each of the following?
Molecular target: human SERT (Homo sapiens)
Sequence (P31645 whole entry): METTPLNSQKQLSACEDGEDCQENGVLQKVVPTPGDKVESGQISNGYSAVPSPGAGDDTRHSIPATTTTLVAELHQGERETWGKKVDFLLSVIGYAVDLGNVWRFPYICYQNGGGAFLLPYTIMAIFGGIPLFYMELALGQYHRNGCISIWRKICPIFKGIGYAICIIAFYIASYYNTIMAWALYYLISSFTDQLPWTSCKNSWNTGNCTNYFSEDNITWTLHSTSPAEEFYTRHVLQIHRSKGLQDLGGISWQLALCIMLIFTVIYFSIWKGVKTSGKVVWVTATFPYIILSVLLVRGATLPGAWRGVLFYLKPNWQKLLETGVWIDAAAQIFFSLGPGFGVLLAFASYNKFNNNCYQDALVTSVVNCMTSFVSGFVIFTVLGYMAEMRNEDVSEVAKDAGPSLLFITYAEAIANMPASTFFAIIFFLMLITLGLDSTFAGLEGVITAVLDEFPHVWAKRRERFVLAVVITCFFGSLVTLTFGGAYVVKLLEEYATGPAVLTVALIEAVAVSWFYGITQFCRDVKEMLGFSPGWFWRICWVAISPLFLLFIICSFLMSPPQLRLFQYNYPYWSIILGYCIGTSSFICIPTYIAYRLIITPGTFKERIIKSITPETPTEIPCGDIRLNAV
A value of pKi is the negative decimal logarithm of a concentration given in moles per litre.

May I ask what pKi has been recorded for CNCCC(Oc1ccccc1)c1ccc(OCCCN2CCCCC2)cc1 (stereo not drawn) [Example 72] ?
7.60

So what's the measured pKi for this one? CN(C)CCC(Oc1ccc(C(F)(F)F)cc1)c1ccc(CCCCN2CCOCC2)cc1 (stereo not drawn) [Example 35]
8.22

Looking for the measured pKi of CN(C)CCC(Oc1ccc(OCCCN2CCCCC2)cc1)c1ccc(C(F)(F)F)cc1 (stereo not drawn) [Example 42] , can you help?
6.74

GET /values?readout=pKi&item= CN(C)CCC(Oc1ccccc1)c1ccc(OCCCN2CCCCC2)cc1 (stereo not drawn) [Example 1]
7.59

Name the recorded pKi for Cc1ccc(OC(CCN(C)C)c2ccc(OCCCN3CCCCC3)cc2)cc1 (stereo not drawn) [Example 6] .
7.80

Data request, read-out pKi, for CN(C)CCC(Oc1ccc(C(F)(F)F)cc1)c1ccc(C#CCCN2CCCCC2)cc1 (stereo not drawn) [Example 20]
7.21

Request the reported pKi associated with CN(C)CCC(Oc1ccccc1Cl)c1ccc(OCCCN2CCCCC2)cc1 (stereo not drawn) [Example 17]
7.68

Quick one: pKi for CN(C)CCC(Oc1cccc(Br)c1)c1ccc(OCCCN2CCCCC2)cc1 (stereo not drawn) [Example 15] ?
8.40

Need pKi, item CN(C)CCC(Oc1ccc(Cl)cc1)c1ccc(OCCCN2CCCCC2)cc1 (stereo not drawn) [Example 8]
7.80

Attribution: patent US20080139564A1
